Tested on: EKVX NSCLC
Test: NCI tumour cell line growth inhibition, 48 h
readout name: TGI

Some compounds with recorded TGI:
Cc1ccc(/C(O)=C/c2nc3ccccc3sc2=O)c(C)c1	> 100 µM
NC(=O)N/N=C1/CCC(O)CC1CC(=O)O (stereo not drawn)	> 100 µM
Cc1c(Cl)cccc1C(=O)Nc1nc2c(s1)CN(C(=O)c1ccc(C(F)(F)F)cc1)CC2	> 50 µM
C=C/C=C/NC(=O)OCc1ccccc1	> 100 µM
CCOC(=O)c1nc2ccc(C(F)(F)F)cc2nc1Oc1cc(OC)c(OC)c(OC)c1	> 100 µM

# next compound below
Request: Find the recorded TGI belonging to C=C1C(O)C2C(=C(CC)C13CC3)C(=O)C(C)(C)C2OC (stereo not drawn) and report it.
Response: > 100 µM

---

Test system: SW-620 colon
Assay: NCI tumour cell line growth inhibition, 48 h
readout name: TGI

Some compounds with recorded TGI:
C[n+]1cccc2c(=O)c3ccccc3oc21	> 100 µM
COC(=O)c1cc(=O)[nH]c(=O)[nH]1	> 100 µM
OCC(O)C(O)C(O)C(O)c1nc2ccc(Cl)cc2[nH]1 (stereo not drawn)	> 100 µM
CC1(C)CC(O)C(C)(C)[C@@H](O)C1 (stereo partly drawn)	> 100 µM
COc1cc([C@@H]2c3cc4c(cc3[C@@H](c3c(O)cc(O)c5c3O[C@H](c3ccc(O)c(O)c3)[C@@H](O)C5)[C@H]3COC(=O)[C@H]23)OCO4)cc(OC)c1OC	> 100 µM
COC(=O)C1(Cc2ccc3c(c2)CCC3)Cc2ccccc2C1O (stereo not drawn)	43.5 µM
Cc1ccccc1OCC(O)CN1CCN(c2ccc(Cl)cc2)CC1 (stereo not drawn)	33.1 µM
O=c1[nH]nc(-c2ccccc2)n1/N=C\c1ccccc1	> 100 µM

Request: Find the recorded TGI belonging to "COC(OC)[C@@H]1OC[C@H](n2cnc3c(N)ncnc32)[C@H]1O" and report it.
Response: > 100 µM

Request: Find the recorded TGI belonging to "O=C(O)CC[C@H](NC(=O)c1ccc(-n2nc3ccc(O)cc3nc2=O)cc1)C(=O)O" and report it.
Response: > 100 µM

Request: Find the recorded TGI belonging to "O=C(Nc1ccc(Br)cc1F)c1cc(I)ccc1O" and report it.
Response: 17.7 µM

Request: Find the recorded TGI belonging to "O=C1C(c2ccccc2)=C(O)c2cccc3cccc1c23" and report it.
Response: > 100 µM

Request: Find the recorded TGI belonging to "O=C(N/N=C/C=C/c1ccc([N+](=O)[O-])o1)c1cc2ccccc2cc1O" and report it.
Response: 3.05 µM

---

System: BT-549 breast
Assay: NCI tumour cell line growth inhibition, 48 h
*1 amine or outer side, *2 acyl side, *3 side chain or, on linkers, in order; H or OH if unused. Where a SMILES comes first, the peptide text is derived from it. Bridges are numbered along the chain shown (N, C = ends). [ ]: non-standard residue; d: D form. The star is where a group is joined. ξ: configuration not given here. γ4hArg(2R,3R-(OH)2) = N=C(N)NCCC[C@H](N[*:1])[C@@H](O)[C@@H](O)C(=O)[*:2]; Gln(3S,4R-Me2) = C[C@H]([C@H](N)C(=O)O)[C@@H](C)C(N)=O; X43 = CC(C)C[C@H](C)[C@@H](O)[C@@H](C)C(=O)*; X44 = COC(c1ccc(O)cc1)C(N[*:1])C(=O)[*:2]; NMeQ = CN[C@@H](CCC(N)=O)C(=O)O; Thr(3ξ) = CC(O)[C@H](N)C(=O)O; NMeA = CN[C@@H](C)C(=O)O
Lab note: compare TGI against 6 µM. Equal or greater, write 1. Smaller, write 0.

Completed entries (count: 4):
Cc1ccc([S@](=O)c2occc2C=O)cc1	1
COC(c1ccc(O)cc1)C1NC(=O)[C@H](CCC(N)=O)N(C)C(=O)[C@H](CC(C)C)NC(=O)[C@@H](CCCN=C(N)N)NC(=O)[C@H](C(C)O)NC(=O)[C@@H](NC(=O)[C@@H](NC(=O)[C@H](O)[C@H](O)[C@H](CCCN=C(N)N)NC(=O)[C@H](C)NC(=O)[C@H](C)[C@H](O)[C@@H](C)CC(C)C)[C@@H](C)[C@@H](C)C(N)=O)[C@@H](C)OC(=O)[C@H](C)N(C)C1=O (stereo partly drawn) (X43-A[γ4hArg(2R,3R-(OH)2)][Gln(3S,4R-Me2)]T[Thr(3ξ)][dR]L[NMeQ][X44][NMeA]; ester 4-C)	0
O=C1C[C@@H](C(=O)OCc2ccccc2)NC(=O)C[C@@H](C(=O)OCc2ccccc2)NC(=O)C[C@@H](C(=O)OCc2ccccc2)N1	1
CN(C)c1ccc(/C(F)=C(F)/C(F)=C(F)/C(F)=C(\F)c2ccc(Br)cc2)cc1	1

Request: Hi, just wondering whether "O=C(Nc1cccc(-n2cc(-c3ccncc3)c(-c3ccc(Cl)c(O)c3)n2)c1)Nc1cc(C(F)(F)F)cc(C(F)(F)F)c1" shows TGI of 6 µM or higher.
Response: 0

Request: Hi, just wondering whether O=C(C/C(=N/O)C(=O)NC1=C(Cl)C(=O)c2ccccc2C1=O)CC(c1ccccc1)c1c(O)c2ccccc2oc1=O (centres undefined) shows TGI of 6 µM or higher.
Response: 1

Request: Hi, just wondering whether "COc1cc(OC)c(C/C=C/c2ccccc2)cc1O" shows TGI of 6 µM or higher.
Response: 1

Request: Hi, just wondering whether "Cc1cc([N+](=O)[O-])c(NS(=O)(=O)c2cccc(C(=O)O)c2)cc1-c1cccnc1" shows TGI of 6 µM or higher.
Response: 1
